- Test system: miR-21
- Assay summary: miR-21 luciferase sensor assay in Hela cells
- Assay type: cell-based
- Measurement context: concentration of anti-miR compound 0.2 (unit not given)
Strand notation (5' to 3'): a small letter for the sugar, then the base; units joined by * are phosphorothioate-linked, units joined directly phosphodiester-linked; [ ] holds rarer units or linkages, { } end groups; capitals alone tell only the bases. e = 2'-O-(2-methoxyethyl) (MOE); k = constrained ethyl (cEt); [5mC] = 5-methylcytosine
Measured quantity: fold change in luciferase value relative to the mock treatment
Just the number, please, no unit after it.

Asked: Data request, read-out fold change in luciferase value relative to the mock treatment, for AE^MeCSAETE^MeCSAEGETE^MeCSTEGEAE^MeTSAEAEGE^MeCSTEAE (antisense eA*k[5mC]*eA*eT*k[5mC]*eA*eG*eT*k[5mC]*eT*eG*eA*kT*eA*eA*eG*k[5mC]*eT*eA; further chemistry not given here) [Compound 25116, 25070 variant: each non-bicyclic nucleoside is 2'-MOE, each cytosine 5-methyl cytosine]
Given back: 1.06

###

- Test system: miR-21
- Assay summary: miR-21 luciferase sensor assay in Hela cells
- Format: cell-based
- Measurement context: .16 nM oligonucleotide; Hela cells; mock transfection 45
Strand notation (5' to 3'): a small letter for the sugar, then the base; units joined by * are phosphorothioate-linked, units joined directly phosphodiester-linked; [ ] holds rarer units or linkages, { } end groups; capitals alone tell only the bases. e = 2'-O-(2-methoxyethyl) (MOE); f = 2'-fluoro
Measured quantity: luciferase value normalized to beta-galactosidase activity

Asked: Given the entry UECEAFAFCFAFUFCFAFGFUFCEUEGEAFUFAFAFGFCFUEAE (eU*eC*fA*fA*fC*fA*fU*fC*fA*fG*fU*eC*eU*eG*fA*fU*fA*fA*fG*fC*eU*eA) [Compound 25919, positive control, reference compound] , report its measured luciferase value normalized to beta-galactosidase activity.
Given back: 40

Asked: Param item: TE^MeCAACSATCSAGTCSTGAUSAAGCSTAE (TCAACATCAGTCTGATAAGCTA; listed as DNA, chemistry not fully specified) [Compound 25082]
Given back: 70

Asked: Another substance to look at: Ae^MeCAST^MeCAGST^MeCTGASTASAGS^MeCTAe (ACATCAGTCTGATAAGCTA; all C 5-methyl, all phosphorothioate, sugars by position not given here; further chemistry not fully specified) [Compound 25071]
Given back: 48

###

- Test system: miR-21
- Assay summary: miR-21 luciferase sensor assay in Hela cells
- Type: cell-based
- Measurement context: .8 nM oligonucleotide; Hela cells; mock transfection 33
Measured quantity: luciferase value normalized to beta-galactosidase activity
Give only the figure.

AECSATCSAGTCSTGAUSAAGCSTAE (ACATCAGTCTGATAAGCTA; modified nucleosides coded in name, code key not given here) [Compound 25070] ... 87
Te^MeCASA^MeCAST^MeCAGST^MeCTGASTAAGS^MeCTAe (antisense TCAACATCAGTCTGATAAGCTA; all C 5-methyl, all phosphorothioate, sugars by position not given here; further chemistry not fully specified) [Compound 25067] ... 23

Turning now to a further substance:
Asked: Query (substance): AECSAETECSAEGETECSTEGEAEUSAEAEGECSTEAE (ACATCAGTCTGATAAGCTA; S-cEt/2'-MOE, phosphorothioate, chemistry not fully specified) [Compound 25072] ; field requested: luciferase value normalized to beta-galactosidase activity
Given back: 49

###

- Test system: miR-21
- Assay summary: miR-21 luciferase sensor assay in Hela cells
- Assay type: cell-based
- Measurement context: concentration of anti-miR compound 1.9 (unit not given)
// reported fold change in luciferase value relative to the mock treatment per item
Enter a number only.

AE^MeCSAT^MeCSAGT^MeCSTGATSAAG^MeCSTAE (antisense ACATCAGTCTGATAAGCTA; modified nucleosides coded in name, code key not given here) [Compound 25922, 25070 variant: each cytosine is a 5-methyl cytosine] ... 1.34

Asked: Item under review: AECSATCSAGTCSTGAUSAAGCSTAE (ACATCAGTCTGATAAGCTA; modified nucleosides coded in name, code key not given here) [Compound 25070] . Reported fold change in luciferase value relative to the mock treatment?
Given back: 1.14

###

- Tested on: miR-21
- Assay summary: miR-21 luciferase sensor assay in Hela cells
- Type: cell-based
- Measurement context: concentration of anti-miR compound 5.6 (unit not given)
Strand notation (5' to 3'): a small letter for the sugar, then the base; units joined by * are phosphorothioate-linked, units joined directly phosphodiester-linked; [ ] holds rarer units or linkages, { } end groups; capitals alone tell only the bases. e = 2'-O-(2-methoxyethyl) (MOE); l = locked nucleic acid (LNA); [5mC] = 5-methylcytosine
Measured quantity: fold change in luciferase value relative to the mock treatment
Returns: the value as a bare number; no unit string appended.

AE^MeCLAETE^MeCLAEGETE^MeCLTEGEAE^MeTLAEAEGE^MeCLTEAE (antisense eA*l[5mC]*eA*eT*l[5mC]*eA*eG*eT*l[5mC]*eT*eG*eA*lT*eA*eA*eG*l[5mC]*eT*eA) [Compound 25117, LNA variant: each non-bicyclic nucleoside is 2'-MOE, each cytosine 5-methyl cytosine] ... 3.64

Now examine the next entry.
Asked: Fill in: fold change in luciferase value relative to the mock treatment of AECSATCSAGTCSTGAUSAAGCSTAS (ACATCAGTCTGATAAGCTA; modified nucleosides coded in name, code key not given here) [Compound 25923, 25070 variant: 3'-terminal nucleoside is a cEt nucleoside rather than 2'-MOE nucleoside] is ___
Given back: 5.18

###

- Test system: miR-21
- Assay summary: miR-21 luciferase sensor assay in Hela cells
- Assay type: cell-based
- Measurement context: concentration of anti-miR compound 16.7 (unit not given)
Strand notation (5' to 3'): a small letter for the sugar, then the base; units joined by * are phosphorothioate-linked, units joined directly phosphodiester-linked; [ ] holds rarer units or linkages, { } end groups; capitals alone tell only the bases. e = 2'-O-(2-methoxyethyl) (MOE); l = locked nucleic acid (LNA); k = constrained ethyl (cEt); [5mC] = 5-methylcytosine; d = 2'-deoxy (DNA)
Consider the following substances and their measured fold change in luciferase value relative to the mock treatment readings.
# respond with the number and nothing more

AE^MeCSAT^MeCSAGT^MeCSTGATSAAG^MeCSTAS (antisense eA*k[5mC]*dA*dT*k[5mC]*dA*dG*dT*k[5mC]*dT*dG*dA*kT*dA*dA*dG*k[5mC]*dT*kA) [Compound 25924, 25070 variant: 3'-terminal cEt nucleoside and each cytosine is a 5-methyl cytosine] ... 13.01

Asked: Request the reported fold change in luciferase value relative to the mock treatment associated with AE^MeCSAETE^MeCSAEGETE^MeCSTEGEAE^MeTSAEAEGE^MeCSTEAE (antisense eA*k[5mC]*eA*eT*k[5mC]*eA*eG*eT*k[5mC]*eT*eG*eA*kT*eA*eA*eG*k[5mC]*eT*eA; further chemistry not given here) [Compound 25116, 25070 variant: each non-bicyclic nucleoside is 2'-MOE, each cytosine 5-methyl cytosine]
Given back: 5.64

Asked: Next entry: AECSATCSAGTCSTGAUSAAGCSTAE (ACATCAGTCTGATAAGCTA; modified nucleosides coded in name, code key not given here) [Compound 25070]
Given back: 11.28

Asked: Now the substance AE^MeCLAETE^MeCLAEGETE^MeCLTEGEAE^MeTLAEAEGE^MeCLTEAE (antisense eA*l[5mC]*eA*eT*l[5mC]*eA*eG*eT*l[5mC]*eT*eG*eA*lT*eA*eA*eG*l[5mC]*eT*eA) [Compound 25117, LNA variant: each non-bicyclic nucleoside is 2'-MOE, each cytosine 5-methyl cytosine]
Given back: 7.36

Asked: Another substance: AECSATCSAGTCSTGAUSAAGCSTAS (ACATCAGTCTGATAAGCTA; modified nucleosides coded in name, code key not given here) [Compound 25923, 25070 variant: 3'-terminal nucleoside is a cEt nucleoside rather than 2'-MOE nucleoside]
Given back: 11.34

Asked: # repeat for AE^MeCSAT^MeCSAGT^MeCSTGATSAAG^MeCSTAE (antisense ACATCAGTCTGATAAGCTA; modified nucleosides coded in name, code key not given here) [Compound 25922, 25070 variant: each cytosine is a 5-methyl cytosine]
Given back: 11.60

###

- Test system: miR-21
- Assay summary: miR-21 luciferase sensor assay in Hela cells
- Format: cell-based
- Measurement context: concentration of anti-miR compound 5.6 (unit not given)
Strand notation (5' to 3'): a small letter for the sugar, then the base; units joined by * are phosphorothioate-linked, units joined directly phosphodiester-linked; [ ] holds rarer units or linkages, { } end groups; capitals alone tell only the bases. e = 2'-O-(2-methoxyethyl) (MOE); k = constrained ethyl (cEt); [5mC] = 5-methylcytosine; d = 2'-deoxy (DNA)
Known fold change in luciferase value relative to the mock treatment of a selection of substances
Field format: numeric only.

AE^MeCSAT^MeCSAGT^MeCSTGATSAAG^MeCSTAE (antisense ACATCAGTCTGATAAGCTA; modified nucleosides coded in name, code key not given here) [Compound 25922, 25070 variant: each cytosine is a 5-methyl cytosine] ... 8.81

Asked: Give its fold change in luciferase value relative to the mock treatment value. Item: AE^MeCSAETE^MeCSAEGETE^MeCSTEGEAE^MeTSAEAEGE^MeCSTEAE (antisense eA*k[5mC]*eA*eT*k[5mC]*eA*eG*eT*k[5mC]*eT*eG*eA*kT*eA*eA*eG*k[5mC]*eT*eA; further chemistry not given here) [Compound 25116, 25070 variant: each non-bicyclic nucleoside is 2'-MOE, each cytosine 5-methyl cytosine]
Given back: 2.47

Asked: Try this substance too: AE^MeCSAT^MeCSAGT^MeCSTGATSAAG^MeCSTAS (antisense eA*k[5mC]*dA*dT*k[5mC]*dA*dG*dT*k[5mC]*dT*dG*dA*kT*dA*dA*dG*k[5mC]*dT*kA) [Compound 25924, 25070 variant: 3'-terminal cEt nucleoside and each cytosine is a 5-methyl cytosine]
Given back: 7.80

Asked: Also need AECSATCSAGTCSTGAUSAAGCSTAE (ACATCAGTCTGATAAGCTA; modified nucleosides coded in name, code key not given here) [Compound 25070] , thanks.
Given back: 6.22
